- Protocol Description: gradient 5% acetonitrile 3 min, to 50% in 2 min, to 85% in 15 min, held 3 min, 100 µL/min
- Particulars: column: Zorbax Extend-C18 2.1 x 50 mm; eluents: water / acetonitrile, 0.1% formic acid
Measured Attribute: RP-LC retention time (s)

Given Smiles	Measured Attribute	Scale Unit	Value Measured
CCN(CC)CCNC(=O)c1cc(S(C)(=O)=O)ccc1OC	RP-LC retention time	s	617
COc1ccc(Cl)cc1NC(=O)Cn1cccc1-c1nnc(C2CCC2)o1	RP-LC retention time	s	1040
Cc1noc(CNC(=O)C2CCN(C(=O)Nc3ccccc3C(F)(F)F)CC2)n1	RP-LC retention time	s	647
COc1ccc(-n2c(=O)n(C)c(=O)c3cc(C(=O)Nc4cc(C)ccc4F)cnc32)cc1	RP-LC retention time	s	912
CCc1sc(NC(=O)CCc2ccccc2)nc1-c1ccccc1	RP-LC retention time	s	1150
